Source of measurements: the EternaBench riboswitch data

Tested on: MS2 coat protein
METHOD_NOTES: apparent Kd, MS2 coat protein; higher = weaker binding; RNA-MaP array; FMN 200 µM where present
RUN_CONDITIONS: designed as: OFF switch for flavin mononucleotide; no ligand
QUANTITY_NAME: apparent Kd (nM)
Number only, in nM; omit the unit.

# INPUT_SEQUENCE, UNITS_OF_MEASURE, REPORTED
records = [
    ("AAAAAGUCAGGAUAUACAUGAGGAUCACCCAUGUAAAAAAAAGGGAAAAAAAAAAAGGGUAGAAGGGACGAAAA", "nM", 37.8),
    ("AAGCGCGUAGGAUAUACAUGAGGAUCACCCAUGUGAGGAGGGAGUUGGAGGUGUGGAAGUAGAAGGACGGAGUG", "nM", 48.1),
    ("AACAGUACAGGAUAUACAUGAGGAUCACCCAUGUGAGCUUUAAGUGCCGUAGCACAAAGUAGAAGGGUACUGGA", "nM", 24.4),
    ("UUAAAUUAGUAGAAGGACGGUGAGUAAGAAGUCGUAGGAUAUACAUAAGACAUGAGGAUCACCCAUGUAAGUUUGUUGGGUAUG", "nM", 44.1),
    ("GACGGAUGUAUAGGAUAUGCUGAGGAAUACUCAGCAGAAGGAUACAUGAGGAUCACCCAUGUAAUAAUAAUAAUAAUAACCGUC", "nM", 12.4),
]

(Q) # apparent Kd lookup, item AAACCGUGUGGAGGAUAUGCAGUUGAGGUGAGGCGGCAGCUCUAUACGACAGCAGAAGGCCACAUGAGGAUCACCCAUGUAGGU
(A) 107

(Q) Try this sequence next: UUUAUGUGAGGAUAUAGUACUCCUUCUAUUAUUAUUGAGUACUAGAAGGCACAUGAGGAUCACCCAUGUAGUAC
(A) 30

(Q) Here is the next sequence: UUUUGAAAGUGAGGAUAUGACAUGAGGAUCACCCAUGUAAAGGGAGUUGAAUAUAUAGAAAGAUAUCAGAAGGCACAAAUGUUU
(A) 178

(Q) Try this sequence too: CGCAAUAUACAGAAGGAGUUAUUGAGAGGUUUACUAGGAUAUGUUCACAUGAGGAUCACCCAUGUCAUAUGGUUUUUUAUUGCG
(A) 13.6

(Q) Would you kindly repeat that for CUCUAUCAUGUAGGAUAUGCGUGUCGAAGCUAUGCAGAAGGACAUGAGGAUCACCCAUGUCUUUCUGUCUGCGGACGGACAGGG ?
(A) 14.9

(Q) Similarly, GAGCGGAUGUCAGGAUAUCGCCGCGUGAAAAGGCGAGAAGGGACAUGAGGAUCACCCAUGUACUCAUAGGGCCAGCUUGGGCUA ?
(A) 9.71

(Q) Would you kindly repeat that for GUUAGACAUGAGGAUCACCCAUGUGAGGAUAUGAUGCGAUCGUGAUGAAAUGAUCGCAUCAGAAGGCACAUAUG ?
(A) 153

(Q) Try the sequence CAUCUCUAUGUAGGAUAUAGGACAACAACAGCACUAGAAGGACAUGAGGAUCACCCAUGUACACUACUCGCGUCAUCGUCUCGC
(A) 6.01

(Q) Now the sequence CCCUAGGGAGGAUAUCCAAUAUAUGACAUGAGGAUCACCCAUGUUUCCACUCGUACCUCCGGAGAAGGCCCAUCCC
(A) 26.3

(Q) Repeat with UGAUCAAAUGUCAGGAUAUGCUGUUGGAAACAACAGCAGAAGGGACAUGAGGAUCACCCAUGUCUUGUCGAUUU
(A) 21.4

(Q) Param item: ACUAUACGAGGAUAUACUGACAGGCCUCAGGCAUACAUCAAACAUGAGGAUCACCCAUGUAGAAGGCGUAUACU
(A) 30.4
